target: SARS-CoV-2 spike protein on live virus, strain USA-WA1/2020 (SARS-CoV-2, WA01/2020 strain, UniProt P0DTC2 14-1273); assay: cell-based or functional assay
PARAMETER MEASURED: Live Neut, WA1/2020 IC50 (pM)
Reply with just the number (in pM).

antibody 1231 (antibody, V domains shown) VH: QVQLVQSGSELKKPGASVKVSCTGYGYTFTSYAMNWVRQAPGQGLEWMGWINTNTGHPAYAQGFTGRFVFSLDSSVSTAYLQISSLKAEDTAVYYCATTIRAGGYFDFWGQGTLVTVSS VL: DIQLTQSPSFLSASVGDRVTITCRASQGISSYLAWFQQKPGKAPKLLIYVVSILQSGVPSRFSGSGSGTEFTLTISSLQPEDFATYYCQQLNSYPYTFGQGTKLEIK
9510

(Q) I would be grateful if you could share the reported Live Neut, WA1/2020 IC50 (pM) for antibody 4441 (antibody, V domains shown) VH: EVQLVESGGGLVQPGRSLRLSCAASGLTFEDYAMHWVRQPPGKGLEWVSGVSWNSGTIGYADSVKGRFTISRDNAKNSLYLHMRSLGAEDTAMYYCAKDMGGRFSFFSLENDAFDIWGQGTMVIVSS VL: SYELTQPPSVSVSPGQTARITCSGDALPKQSTYWYQQKPGQAPVLVIYKDIERPSGIPERFSGSSSGTTVTLTISGVQAEDEADYYCQSADSSDTYVFGTGTKVTVL .
(A) 85

(Q) I would be grateful if you could share the reported Live Neut, WA1/2020 IC50 (pM) for antibody 2598 (antibody, V domains shown) VH: QVQLQESGPGLVKPSGTLSLTCVVSGGSISSSNWWSWVRQPPGKGLEWIGETFHSGSFNYNPSLKSRVTISVDKSKNQFSLKLSSVTAADTAIYYCATTRVGYEGHFYYYGMDVWGQGTTVTVSS VL: DIQMTQSPSSVSASVGDRVTITCRASQGISSWLAWYQQKPGKAPKLLIYAASSLQSGVPSRFSGSGSGTDFTLTISSLQPEDFATYYCQQANRFPWTFGQGTKVEIK .
(A) 586

(Q) I would be grateful if you could share the reported Live Neut, WA1/2020 IC50 (pM) for antibody 937 (antibody, V domains shown) VH: EVQLVESGGGLVQPGRSLRLSCAASGFTFDDYAMHWVRQAPGKGLEWVSGISWNSGSIGYADSVKGRFTISRDNAKNSLYLQMNSLKPEDTALYYCAKSTTSCYNGSQCPTKRPKPLESWGQGTLVIVSA VL: DIQMTQSPSTLSAFVGDRVTITCRASQSINNWLAWYQQKPGEVPKLLIYKASSLENGVPSRFSGSGFGTEFTLTISSLQPDDFAIYYCQQYYSHSHTFGQGTKLEIK .
(A) 140

(Q) I would be grateful if you could share the reported Live Neut, WA1/2020 IC50 (pM) for antibody 3086 (antibody, V domains shown) VH: QVQLQESGPGLVKPSETLSLTCTVSGGSISGHYWSWIRQPPGKGLEWIGYIYYSGSTNYNPSLKSRVTISVDTSVNQFSLKLSSVTAADTAVYYCARQEARDAVGNYFFDSWGQGTLVTVSS VL: QSALTQPASVSGSPGQSITISCSGTSSDIGSYDLVSWYQQHPGKAPKLLIYDVTKRPSGVSHRFSGSKSGNTASLTISGLQGEDEADYYCCSYVHFSTWVFGGGTKLTVL .
(A) 7
